Data provenance: patent US10570121B2

I'd appreciate it if you could supply IC50 values for the items below.
- System tested: WT EZH2 (Homo sapiens (Human), UniProt Q15910)
- Sequence (Q15910 whole entry, looked up): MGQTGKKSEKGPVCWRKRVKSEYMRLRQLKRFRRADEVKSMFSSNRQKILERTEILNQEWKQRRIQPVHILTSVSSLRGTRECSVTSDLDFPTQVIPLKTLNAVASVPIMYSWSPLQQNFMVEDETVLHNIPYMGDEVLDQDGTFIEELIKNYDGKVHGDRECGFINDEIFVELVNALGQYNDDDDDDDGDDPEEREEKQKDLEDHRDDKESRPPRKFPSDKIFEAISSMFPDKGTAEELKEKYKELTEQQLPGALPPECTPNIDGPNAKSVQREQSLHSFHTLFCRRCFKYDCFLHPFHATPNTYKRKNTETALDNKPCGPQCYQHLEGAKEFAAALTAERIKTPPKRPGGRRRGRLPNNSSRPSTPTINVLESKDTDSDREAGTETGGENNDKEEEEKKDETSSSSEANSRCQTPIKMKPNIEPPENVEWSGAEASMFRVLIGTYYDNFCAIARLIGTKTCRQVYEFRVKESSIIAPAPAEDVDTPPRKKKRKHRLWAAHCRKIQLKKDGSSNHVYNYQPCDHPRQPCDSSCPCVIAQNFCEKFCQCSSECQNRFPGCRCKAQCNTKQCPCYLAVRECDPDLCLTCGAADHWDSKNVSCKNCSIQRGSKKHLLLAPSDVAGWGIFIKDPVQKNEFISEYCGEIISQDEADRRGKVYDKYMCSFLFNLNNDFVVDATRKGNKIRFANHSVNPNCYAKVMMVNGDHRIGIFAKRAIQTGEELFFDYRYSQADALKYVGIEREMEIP
- Sequence (O75530 whole entry partner, looked up): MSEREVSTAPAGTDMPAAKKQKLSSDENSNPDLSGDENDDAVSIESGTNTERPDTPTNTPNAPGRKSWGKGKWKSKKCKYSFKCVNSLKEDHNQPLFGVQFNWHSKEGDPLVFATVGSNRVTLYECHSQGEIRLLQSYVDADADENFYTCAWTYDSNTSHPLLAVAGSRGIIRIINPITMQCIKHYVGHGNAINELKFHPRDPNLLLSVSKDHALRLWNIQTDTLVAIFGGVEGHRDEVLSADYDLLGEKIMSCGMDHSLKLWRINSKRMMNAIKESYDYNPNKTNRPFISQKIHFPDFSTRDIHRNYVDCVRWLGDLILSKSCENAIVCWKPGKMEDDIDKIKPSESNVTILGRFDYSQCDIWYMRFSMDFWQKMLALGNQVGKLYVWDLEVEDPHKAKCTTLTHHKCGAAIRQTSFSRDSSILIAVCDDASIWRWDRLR
- Sequence (Q15022 whole entry partner, looked up): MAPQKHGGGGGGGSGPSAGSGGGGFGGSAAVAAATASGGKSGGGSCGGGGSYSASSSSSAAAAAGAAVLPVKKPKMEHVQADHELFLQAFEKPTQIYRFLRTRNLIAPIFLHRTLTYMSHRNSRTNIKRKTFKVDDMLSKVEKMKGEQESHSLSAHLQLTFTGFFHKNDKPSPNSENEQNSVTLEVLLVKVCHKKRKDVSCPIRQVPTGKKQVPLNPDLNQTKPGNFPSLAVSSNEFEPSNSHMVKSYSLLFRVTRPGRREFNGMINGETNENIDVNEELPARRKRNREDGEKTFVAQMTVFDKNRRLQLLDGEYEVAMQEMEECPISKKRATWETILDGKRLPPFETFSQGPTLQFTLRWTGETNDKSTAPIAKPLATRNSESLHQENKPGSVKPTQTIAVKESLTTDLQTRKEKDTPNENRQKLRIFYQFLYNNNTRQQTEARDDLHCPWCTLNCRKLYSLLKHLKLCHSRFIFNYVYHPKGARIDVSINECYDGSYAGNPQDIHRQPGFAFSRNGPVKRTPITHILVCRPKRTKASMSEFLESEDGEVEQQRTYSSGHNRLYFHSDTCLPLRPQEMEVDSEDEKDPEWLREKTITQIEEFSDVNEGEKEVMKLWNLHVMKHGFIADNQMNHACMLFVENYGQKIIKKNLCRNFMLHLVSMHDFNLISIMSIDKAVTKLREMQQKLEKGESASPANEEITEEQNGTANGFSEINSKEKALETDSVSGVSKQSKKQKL
- Sequence (Q09028 whole entry partner, looked up): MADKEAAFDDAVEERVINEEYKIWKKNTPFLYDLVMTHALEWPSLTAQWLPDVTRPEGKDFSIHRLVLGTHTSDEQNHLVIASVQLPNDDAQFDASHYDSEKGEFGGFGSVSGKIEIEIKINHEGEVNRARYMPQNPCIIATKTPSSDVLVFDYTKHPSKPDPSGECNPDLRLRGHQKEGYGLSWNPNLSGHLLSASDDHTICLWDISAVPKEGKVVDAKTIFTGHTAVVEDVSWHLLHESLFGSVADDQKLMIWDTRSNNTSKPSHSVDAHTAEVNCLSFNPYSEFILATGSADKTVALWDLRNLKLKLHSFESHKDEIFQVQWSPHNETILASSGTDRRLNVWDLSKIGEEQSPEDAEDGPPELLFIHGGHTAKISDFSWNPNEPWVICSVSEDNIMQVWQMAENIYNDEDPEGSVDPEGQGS
- Assay summary: WT EZH2 nucleosome assay
- Format: biochemical
- Conditions: PRC2 4-protein complex 4 nM, 1.5 μM SAM, HeLa oligonucleosomes; read-out: WT EZH2 Nucleosome assay IC50
Could you kindly put the unit after your number?

Please review the following examples before continuing.
- Compound: "COC(CO)c1cc(Cl)c2c(c1Cl)C(=O)N(Cc1c(C)cc(C)[nH]c1=O)CC2 (single isomer, unassigned) [Example 11]"
  Test readout: "IC50"
  Assay result: "0.038 µM"
- Compound: "Cc1cc(C)c(CN2CCc3c(Cl)cc([C@@H](C)CO)c(Cl)c3C2=O)c(=O)[nH]1"
  Test readout: "IC50"
  Assay result: "0.013 µM"
- Compound: "Cc1cc(C)c(CN2CCc3c(Cl)cc(C(C)CN(C)CCO)c(Cl)c3C2=O)c(=O)[nH]1 (racemic)"
  Test readout: "IC50"
  Assay result: "0.015 µM"
- Compound: "COC(CO)c1cc(Cl)c2c(c1Cl)C(=O)N(Cc1c(C)cc(C)[nH]c1=O)CC2 (single isomer, unassigned) [Example 10]"
  Test readout: "IC50"
  Assay result: "0.326 µM"
- Compound: "Cc1cc(C)c(CN2CCc3c(Cl)cc(C(C)CCO)c(Cl)c3C2=O)c(=O)[nH]1 (single isomer, unassigned) [Example 40]"
  Test readout: "IC50"
  Assay result: "0.006 µM"
- Compound: "Cc1cc(C)c(CN2CCc3c(Cl)cc(C(C)C4CCN(C(=O)CO)CC4)c(Cl)c3C2=O)c(=O)[nH]1 (racemic)"
  Test readout: "IC50"
  Assay result: "0.004 µM"

--- query ---
Form field IC50, entry Cc1cc(C)c(CN2CCc3c(Cl)cc(C(C)C#N)c(Cl)c3C2=O)c(=O)[nH]1 (racemic) : 0.093 µM

----------
- System tested: EZH2 Mutant Y641N (Homo sapiens (Human), UniProt Q15910, Y641N)
- Sequence (Q15910 whole entry Y641N, looked up): as the sequence (Q15910 whole entry, looked up) above, with Y641N counted along it
- Sequence (O75530 whole entry partner, looked up): as the sequence (O75530 whole entry partner, looked up) above
- Sequence (Q15022 whole entry partner, looked up): as the sequence (Q15022 whole entry partner, looked up) above
- Sequence (Q09028 whole entry partner, looked up): as the sequence (Q09028 whole entry partner, looked up) above
- Assay summary: EZH2 Mutant Y641N nucleosome assay
- Assay type: biochemical
- Conditions: PRC2 4-protein complex 6 nM, 1.5 μM SAM, HeLa oligonucleosomes; read-out: EZH2 Mutant Y641N Nucleosome assay IC50
pIC50: −log10 of the molar value.
Tick 1 (yes) if pIC50 is 7 or greater. Tick 0 (no) if pIC50 is less than 7.

- Compound: "COC(c1cc(Cl)c2c(c1Cl)C(=O)N(Cc1c(C)cc(C)[nH]c1=O)CC2)C1(F)CCN(C)CC1 (single isomer, unassigned) [Example 120]"
  Cat: "1 (yes)"
- Compound: "Cc1cc(C)c(CN2CCc3ccc([C@@H](CO)[C@@H]4CCOC4)c(Cl)c3C2=O)c(=O)[nH]1 (racemic) [Example 64]"
  Cat: "1 (yes)"
- Compound: "COC(c1cc(Cl)c2c(c1Cl)C(=O)N(Cc1c(C)cc(C)[nH]c1=O)CC2)C1(O)CCOCC1 (single isomer, unassigned) [Example 53]"
  Cat: "1 (yes)"
- Compound: "COC(c1cc(Br)c2c(c1Cl)C(=O)N(Cc1c(C)cc(C)[nH]c1=O)CC2)C1CN(C(=O)CO)C1 (single isomer, unassigned) [Example 139]"
  Cat: "1 (yes)"
- Compound: "Cc1cc(C)c(CN2CCc3ccc(C(CO)C4CCOC4)c(Cl)c3C2=O)c(=O)[nH]1 (single isomer, unassigned) [Example 96]"
  Cat: "0 (no)"
- Compound: "CCC(OC)c1cc(Cl)c2c(c1Cl)C(=O)N(Cc1c(OC)cc(C)[nH]c1=O)CC2 (single isomer, unassigned) [Example 108]"
  Cat: "1 (yes)"
- Compound: "Cc1cc(C)c(CN2CCc3c(Cl)cc(C(F)C4CCN(C(=O)CO)CC4)c(Cl)c3C2=O)c(=O)[nH]1 (single isomer, unassigned; (+)) [Example 8]"
  Cat: "0 (no)"
- Compound: "COC(c1cc(Cl)c2c(c1Cl)C(=O)N(Cc1c(C)cc(C)[nH]c1=O)CC2)C1CCS(=O)(=O)C1 (single isomer, unassigned) [Example 150]"
  Cat: "1 (yes)"

# input State whether the measured pIC50 reaches 7, counting equality as reaching it, for Cc1cc(C)c(CN2CCc3ccc([C@H](CO)[C@@H]4CCOC4)c(Cl)c3C2=O)c(=O)[nH]1 (racemic) [Example 65]
# output 1 (yes)

# input State whether the measured pIC50 reaches 7, counting equality as reaching it, for COC(c1cc(C)c2c(c1Cl)C(=O)N(Cc1c(C)cc(C)[nH]c1=O)CC2)C1CCN(C2COC2)CC1 (single isomer, unassigned) [Example 154]
# output 0 (no)

# input State whether the measured pIC50 reaches 7, counting equality as reaching it, for Cc1cc(C)c(CN2CCc3ccc(C(CO)C4CCOC4)c(Cl)c3C2=O)c(=O)[nH]1 (single isomer, unassigned) [Example 99]
# output 1 (yes)

----------
- System tested: WT EZH2 (Homo sapiens (Human), UniProt Q15910)
- Assay summary: WT EZH2 nucleosome assay (10X SAM, high SAM conditions)
- Format: biochemical
- Conditions: 15 uM SAM, Ki app from competitive inhibition fit, read-out: WT EZH2 Nucleosome assay (10X SAM) Ki
Test readout: pKi
Answers are plain numbers, as −log10 of the molar value.

- Compound: "COC(c1cc(Cl)c2c(c1Cl)C(=O)N(Cc1c(C)cc(C)[nH]c1=O)CC2)[C@H](C)CO (single isomer, unassigned) [Example 141]"
  Test readout: "pKi"
  Assay result: 8.70
- Compound: "COC(c1cc(Cl)c2c(c1Cl)C(=O)N(Cc1c(C)cc(C)[nH]c1=O)CC2)C1CC(=O)N(C)C1 (single isomer, unassigned) [Example 179]"
  Test readout: "pKi"
  Assay result: 9.00
- Compound: "COC(c1cc(Cl)c2c(c1Cl)C(=O)N(Cc1c(C)cc(C)[nH]c1=O)CC2)C1CCN(C=O)CC1 (single isomer, unassigned)"
  Test readout: "pKi"
  Assay result: 7.39
- Compound: "COc1cc(C)[nH]c(=O)c1CN1CCc2c(Cl)cc(C(C)C3CCN(C(=O)CO)CC3)c(Cl)c2C1=O (single isomer, unassigned) [Example 201]"
  Test readout: "pKi"
  Assay result: 8.15
- Compound: "COC(c1cc(Cl)c2c(c1Cl)C(=O)N(Cc1c(C)cc(C)[nH]c1=O)CC2)C1CCN(C(=O)CO)C1 (stereo not drawn)"
  Test readout: "pKi"
  Assay result: 9.10

--- query ---
Form field pKi, entry Cc1cc(C)c(CN2CCc3c(Cl)cc(C(C)C4CNC4)c(Cl)c3C2=O)c(=O)[nH]1 (single isomer, unassigned) [Example 189] : 9.15

----------
- System tested: WT EZH2 (Homo sapiens (Human))
- Assay summary: WT EZH2 nucleosome assay
- Format: biochemical
- Conditions: WT EZH2 Nucleosome assay IC50 (μM), PRC2 4-protein complex 4 nM, 1.5 μM SAM, HeLa oligonucleosomes
Test readout: IC50 (µM)
Give bare numbers, in µM.

Dear colleague, could you send me IC50 for each of the items below? Thanks.
1. COC(c1cc(Cl)c2c(c1Cl)C(=O)N(Cc1c(C)cc(C)[nH]c1=O)CC2)C1CCN(C(=O)CO)CC1 (single isomer, unassigned) [Example 36]
2. CCC(O)c1cc(Cl)c2c(c1Cl)C(=O)N(Cc1c(C)cc(C)[nH]c1=O)CC2 (racemic) [Example 25]
3. Cc1cc(C)c(CN2CCc3c(Cl)cc(C(C)CO)c(Cl)c3C2=O)c(=O)[nH]1 (racemic)
4. Cc1cc(C)c(CN2CCc3c(Cl)cc([C@H](CO)[C@@H]4CCOC4)c(Cl)c3C2=O)c(=O)[nH]1 (single isomer, unassigned)
5. CCC(CO)c1cc(Cl)c2c(c1Cl)C(=O)N(Cc1c(C)cc(C)[nH]c1=O)CC2 (single isomer, unassigned) [Example 30]
6. Cc1cc(C)c(CN2CCc3c(Cl)cc(C(CO)C4CCOCC4)c(Cl)c3C2=O)c(=O)[nH]1 (single isomer, unassigned) [Example 37]
7. CCC(O)c1cc(Cl)c2c(c1Cl)C(=O)N(Cc1c(C)cc(C)[nH]c1=O)CC2 (single isomer, unassigned) [Example 28]
8. Cc1cc(C)c(CN2CCc3c(Cl)cc(C(CO)C4CCOCC4)c(Cl)c3C2=O)c(=O)[nH]1 (single isomer, unassigned) [Example 38]

# output
0.105
0.084
0.035
0.002
0.004
0.001
0.126
0.378

----------
- System tested: WT EZH2 (Homo sapiens (Human), UniProt Q15910)
- Assay summary: WT EZH2 nucleosome assay (10X SAM, high SAM conditions)
- Assay type: biochemical
- Conditions: 15 uM SAM, Ki app from competitive inhibition fit, read-out: WT EZH2 Nucleosome assay (10X SAM) Ki
Test readout: Ki (nM)
Numbers only, in nM.

Please review the following examples before continuing.
- Compound: "COc1cc(C)[nH]c(=O)c1CN1CCc2c(Cl)cc([C@H](CO)[C@H]3CCCO3)c(Cl)c2C1=O [Example 105]"
  System tested: "WT EZH2 (Homo sapiens (Human), UniProt Q15910)"
  Ki (nM): 0.8
- Compound: "COc1cc(C)[nH]c(=O)c1CN1CCc2c(C)cc(C(OC)C3COC3)c(Cl)c2C1=O (single isomer, unassigned) [Example 145]"
  System tested: "WT EZH2 (Homo sapiens (Human), UniProt Q15910)"
  Ki (nM): 70
- Compound: "COC(c1ccc2c(c1Cl)C(=O)N(Cc1c(C)cc(C)[nH]c1=O)CC2)C1CCOC1 (single isomer, unassigned) [Example 132]"
  System tested: "WT EZH2 (Homo sapiens (Human), UniProt Q15910)"
  Ki (nM): 1
- Compound: "Cc1cc(C)c(CN2CCc3c(Cl)cc(C(CO)N4CCOCC4)c(Cl)c3C2=O)c(=O)[nH]1 (single isomer, unassigned) [Example 69]"
  System tested: "WT EZH2 (Homo sapiens (Human), UniProt Q15910)"
  Ki (nM): 417

Dear colleague, could you send me Ki for each of the items below? Thanks.
1. Cc1cc(C)c(CN2CCc3c(Cl)cc(C(C)C4CNC4)c(Cl)c3C2=O)c(=O)[nH]1 (single isomer, unassigned) [Example 190]
2. COC(c1cc(Br)c2c(c1Cl)C(=O)N(Cc1c(C)cc(C)[nH]c1=O)CC2)C1CCN(C)CC1 (single isomer, unassigned) [Example 147]
3. CCC(OC)c1cc(Cl)c2c(c1Cl)C(=O)N(Cc1c(OC)cc(C)[nH]c1=O)CC2 (single isomer, unassigned) [Example 108]
4. COC(c1cc(Cl)c2c(c1Cl)C(=O)N(Cc1c(C)cc(C)[nH]c1=O)CC2)C1CN(C(=O)[C@H](C)O)C1 (single isomer, unassigned) [Example 173]
5. COc1cc(C)[nH]c(=O)c1CN1CCc2c(Cl)cc([C@@H](OC)C3COC3)c(Cl)c2C1=O [Example 82]
6. Cc1cc(C)c(CN2CCc3c(Cl)cc(C(CO)N4CC[C@H](F)C4)c(Cl)c3C2=O)c(=O)[nH]1 (single isomer, unassigned) [Example 63]
7. COC(c1cc(Cl)c2c(c1Cl)C(=O)N(Cc1c(C)cc(C)[nH]c1=O)CC2)C1CC[S+]([O-])CC1 (single isomer, unassigned) [Example 115]

# output
1: 16; 2: 128; 3: 1.7; 4: 16; 5: 6; 6: 528; 7: 0.3

Dear colleague, could you send me Ki for each of the items below? Thanks.
1. COc1cc(C)[nH]c(=O)c1CN1CCc2c(Cl)cc(C(OC)C3CCN(C=O)CC3)c(Cl)c2C1=O (single isomer, unassigned) [Example 118]
2. COC(c1cc(Cl)c2c(c1Cl)C(=O)N(Cc1c(C)cc(C)[nH]c1=O)CC2)C1CN(C(=O)[C@@H](C)O)C1 (single isomer, unassigned) [Example 170]
3. CC(=C1CN(C(=O)CO)C1)c1cc(Cl)c2c(c1Cl)C(=O)N(Cc1c(C)cc(C)[nH]c1=O)CC2 [Example 75]
4. Cc1cc(C)c(CN2CCc3c(C)cc(C(C)C4CN(S(C)(=O)=O)C4)c(Cl)c3C2=O)c(=O)[nH]1 (single isomer, unassigned) [Example 193]

# output
1. 0.1
2. 0.8
3. 2
4. 1

Dear colleague, could you send me Ki for each of the items below? Thanks.
1. Cc1cc(C)c(CN2CCc3c(Cl)cc(C(CO)O[C@@H]4CCOC4)c(Cl)c3C2=O)c(=O)[nH]1 (single isomer, unassigned) [Example 104]
2. Cc1cc(C)c(CN2CCc3c(C)cc(C(CO)C4CCOCC4)c(Cl)c3C2=O)c(=O)[nH]1 (single isomer, unassigned) [Example 101]
3. Cc1cc(OC(F)F)c(CN2CCc3c(Cl)cc(C(CO)C4CCOC4)c(Cl)c3C2=O)c(=O)[nH]1 (single isomer, unassigned) [Example 92]
4. COC(c1cc(Cl)c2c(c1Cl)C(=O)N(Cc1c(C)cc(C)[nH]c1=O)CC2)C1(O)CCOCC1 (single isomer, unassigned) [Example 53]
5. COc1cc(C)[nH]c(=O)c1CN1CCc2c(C)cc([C@H](OC)[C@@H]3CCOC3)c(Cl)c2C1=O [Example 83]
6. Cc1cc(C)c(CN2CCc3c(Cl)cc(C(CO)N4CCOCC4)c(Cl)c3C2=O)c(=O)[nH]1 (single isomer, unassigned) [Example 68]
7. COC(c1cc(C)c2c(c1Cl)C(=O)N(Cc1c(C)cc(C)[nH]c1=O)CC2)C1CCS(=O)(=O)CC1 (single isomer, unassigned) [Example 131]
8. COc1cc(C)[nH]c(=O)c1CN1CCc2c(Cl)cc(C(OC)C3CCN(C=O)CC3)c(Cl)c2C1=O (single isomer, unassigned) [Example 119]

# output
1. 673
2. 0.3
3. 1
4. 1
5. 0.4
6. 7
7. 0.7
8. 15

Form field Ki, entry COC(c1ccc2c(c1Cl)C(=O)N(Cc1c(C)cc(C)[nH]c1=O)CC2)C1CCOC1 (single isomer, unassigned) [Example 134] : 131
